- TEST_DETAILS: HUVEC growth inhibition – cell-based, human, primary screen (AID 575);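 also: 100% = median of untreated cell wells with 0.1% DMSO on each plate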
- APPLIED_CONDITIONS: HUVEC proliferation, CellTiter-Glo luminescence, 72 h; at 10 µM; hits give low values
READOUT_KIND: viability (%)

> print(dat)
                                    compound  observed
 1               c1ccc2c(c1)Cn1c-2nc2ccccc21       120
 2  Cc1cccc(N2CCN(C(=O)c3cc4c(=O)[nH]c5ccccc5c4n3C)CC2)c1C      65.5
 3  O=C(O)CC1CCCC(c2ccccc2)C1=O (stereo not drawn)       108
 4  Cc1ccc(S(=O)(=O)N(C)Cc2cc3ccccc3[nH]c2=O)cc1       111
 5  CCOC(=O)C1=C(C)NC2=C(C(=O)CC(C)(C)C2)C1c1ccc(N(C)C)cc1 (stereo not drawn)        87
 6  CCOC(=O)c1cccc(NC(=O)Cn2cnc3c2c(=O)n(C)c(=O)n3C)c1       102
 7     Cc1nnc(SCc2cc(=O)[nH]c(N3CCCCC3)n2)s1       107
 8    O=C(NCC(=O)N1CCC(N2CCCCC2)CC1)C1CCCCC1       106
 9               Cc1nc(SCC#N)c2c(C)c(C)sc2n1      98.6
10  Cc1ccc(C(=O)CCC2CCCC2=O)cc1 (stereo not drawn)       111
11  O=C(C1CC1)N1CCC(c2nc(-c3ccc(S(=O)(=O)NCC4CCCO4)cc3)no2)CC1 (stereo not drawn)      54.7
12  COc1ccc(N2CCN(c3nc4c(c(=O)[nH]c(=O)n4C)n3CCCc3ccccc3)CC2)cc1        94
13  COC(=O)Nc1ccc(S(=O)(=O)N2CCN(c3ccc(F)cc3)CC2)cc1      86.9
14                    Cc1cc2c(nn1)CCC/C2=N\O       123
15       Cc1cc(C)c2c(n1)sc1c(N3CCOCC3)ncnc12      25.4
16  CC1CC(=O)C2=C(C1)OC(N)=C(C#N)C2c1coc2ccccc2c1=O (stereo not drawn)      95.1
17  O=C(CN1CCCN(S(=O)(=O)c2ccc(Br)cc2)CC1)Nc1ccc2cn[nH]c2c1      73.1
18  CN(C)S(=O)(=O)c1ccc(C(=O)Nc2ccccc2C(=O)O)cc1       102
19  CCCCN(CC)S(=O)(=O)c1ccc2c(c1)CCCN2C(C)=O      88.9
20    CS(=O)(=O)Nc1ccc(S(=O)(=O)Nc2nccs2)cc1       116
21  CS(=O)(=O)N(CC(=O)Nc1ccc2c(c1)OCCO2)Cc1ccccc1       107
22  O=C(CN1C(=O)c2ccccc2C1=O)NCC1COc2ccccc2O1 (stereo not drawn)      95.1
23                COc1ccccc1-c1cn[nH]c(=S)n1       100

====

Below: a set of entries, each annotated with reported inhibition.
- TEST_DETAILS: 384-well plate pilot, post-Golgi transport modulator project, inhibition of yeast transport mutant growth (AID 636)
- APPLIED_CONDITIONS: absorbance 615 nm, about 18 h, hits give high values
Square brackets hold non-standard residues; d marks the D form. Peptide text beside a SMILES is read from it. * marks the point of attachment. ξ: configuration not given here. Cbz = O=C(OCc1ccccc1)*; ξK = NCCCCC(N)C(=O)O
READOUT_KIND: inhibition (%)

> print(dat)
                                    compound  readout.kind  observed
 1  CCC(c1nnnn1CCOC)N(Cc1ccc(C)cc1)Cc1cc2cc(OC)ccc2[nH]c1=O (stereo unspecified)    inhibition     -3.03
 2  COc1ccc(C2C(=O)N(C3CCCCC3)CC(=O)N2Cc2ccco2)cc1 (stereo unspecified)    inhibition     -6.67
 3           Cc1ccc(NS(=O)(=O)c2cn(C)cn2)cc1    inhibition     -2.63
 4  CCOc1ccc(-n2cc(C(=O)Nc3cccc(C)n3)c3cc(OC)c(OC)cc3c2=O)cc1    inhibition     -5.47
 5           CSc1nc(C)cc(Oc2ccc(=O)n(C)n2)n1    inhibition     -3.92
 6  Cn1c(CN2CCOCC2)nc2cc(NC(=O)c3ccccc3Cl)ccc21    inhibition     -3.55
 7  Cc1cccc(CS(=O)(=O)Cc2ccc(C(=O)NCC3CCCO3)o2)c1 (stereo unspecified)    inhibition     -2.89
 8  COc1ccccc1C(=O)Nc1ccc(S(=O)(=O)N2CCCC2)cc1    inhibition     -4.93
 9               COc1ccc(-c2nnc(SCC#N)o2)cc1    inhibition     -5.47
10   CCCCOC(=O)n1c(SCC(=O)N(CC)CC)nc2ccccc21    inhibition     -1.82
11      CCNC(=O)c1ccc(NS(=O)(=O)c2ccccc2)cc1    inhibition         0
12  CCC(c1nnnn1Cc1ccco1)N(CCc1ccccc1)Cc1cc2cccc(C)c2[nH]c1=O (stereo unspecified)    inhibition        -5
13  N#Cc1c(NC(=O)c2ccc(Br)o2)n(-c2ccccc2)c2nc3ccccc3nc12    inhibition     -5.73
14          COCCCN(C(C)=O)c1nc(-c2ccccc2)cs1    inhibition     -7.81
15  CC1CCC(C(=O)NC(C(=O)NCCN2CCC(C)CC2)C(C)C)CC1 (stereo unspecified)    inhibition     -1.04
16         Cn1c(CCCNC(=O)c2ccccc2)nc2ccccc21    inhibition     -8.65
17             COCCNc1oc(-c2ccc(C)cc2)nc1C#N    inhibition     -4.46
18     Cc1cc(N2CCN(c3ccccn3)CC2)n2nc(C)nc2n1    inhibition     -4.23
19  CCC(CO)Nc1ncnc2c1cnn2-c1ccc(Cl)cc1 (stereo unspecified)    inhibition     -5.73
20  COC(=O)C(CCCCNC(=O)OCc1ccccc1)NC(=O)CN (stereo unspecified) (H-Gly-[ξK](Cbz)-OMe)    inhibition      -2.6
21      Cc1ccc(CNC(=O)COC(=O)c2c(C)noc2C)cc1    inhibition     -4.03
22          O=C(O)c1cc(/C=N\O)ccc1OCc1ccccc1    inhibition     -5.33
23                    Clc1ccc(SCCn2ccnc2)cc1    inhibition     -6.22
24  CC(C(=O)N1CCCCC1)n1ncn2cccc2c1=O (stereo unspecified)    inhibition     -1.58
25   CCn1c(=O)c(C(=O)Nc2cccnc2)c(O)c2ccccc21    inhibition     -0.93
26  CCC(Sc1ccc2nnc(-c3ccc(F)cc3)n2n1)C(=O)OC (stereo unspecified)    inhibition      -7.7
27            C/C(N)=C(\C#N)C(=O)NCCc1ccccn1    inhibition     -1.45
28  COc1ccc(OCC(O)Cn2c(Br)nc3c2c(=O)[nH]c(=O)n3C)cc1 (stereo unspecified)    inhibition      -4.4
29  COc1ccccc1C(=O)Nc1ccc(S(=O)(=O)N2CCOCC2)cc1    inhibition     -2.89
30        N#Cc1c(N)c(C(=O)c2ccccc2)n2c1CCCC2    inhibition     -8.92
31  O=C(CSc1nnc(Cn2nnc(-c3ccccc3)n2)n1-c1ccccc1)Nc1ccc(F)cc1    inhibition     -1.45
32                CCOc1ccccc1Nc1ncnc2ccccc12    inhibition     -1.45
33  CCOc1ccc2[nH]c(=O)c(C(c3nnnn3CC3CCCO3)N3CCc4ccccc4C3)cc2c1 (stereo unspecified)    inhibition     -4.93
34  COc1ccc(S(=O)(=O)N(C)CC(=O)N2CCCCC2)cc1Cl    inhibition     -5.41
35               Cc1ccc(NC(=O)Cn2cccc2)cc1Cl    inhibition     -5.95
36  COc1cc2c(cc1NC(=O)CN1CCN(S(=O)(=O)c3ccc(F)cc3)CC1)oc1ccccc12    inhibition     -2.37
37  CC1CCN(C(=O)C2CCN(S(=O)(=O)c3cnc[nH]3)CC2)CC1    inhibition     -4.61
38  Cc1cc(C)c(Cn2c(=O)n(CCCC(=O)NCc3ccco3)c(=O)c3ccccc32)c(C)c1    inhibition     -1.45
39         O=C(O)CCCC(=O)Nc1ccc(Br)cc1C(=O)O    inhibition     -0.53
40  Cc1ccc(C(C(=O)NC(C)(C)C)N(C(=O)c2csnn2)c2cccc(F)c2)o1 (stereo unspecified)    inhibition      -3.6
41  O=C(Nc1ccc(S(=O)(=O)NC2CCCC2)cc1)c1cnccn1    inhibition      -2.5
42              c1cnn(-c2cc(N3CCOCC3)ncn2)c1    inhibition      4.47
43  CC(C)(C)n1ncc2c(=O)n(CC(=O)c3ccccc3)cnc21    inhibition     -0.39
44  CN(C)c1nc(Oc2ccc(=O)n(C)n2)nc(N2CCOCC2)n1    inhibition     -4.93
45  COCCN1C(=O)C(=O)/C(=C(/O)c2cccc(S(=O)(=O)N(C)C)c2)C12C(=O)N(C)c1ccccc12 (stereo unspecified)    inhibition     -7.76
46     Cc1cc(C)nc(SCc2nnc(SCc3ccccc3Cl)o2)n1    inhibition     -3.29
